System: human red blood cells (hRBC)
Assay: Hemolytic activity
Type: cell-based
Details: concentration at which 50% hemolysis was observed
Non-standard residues stand in square brackets, D forms with d. Residues, ends and D or L forms follow the SMILES beside them. Dip = N[C@H](C(=O)O)C(c1ccccc1)c1ccccc1; hArg = N=C(N)NCCCC[C@H](N)C(=O)O; Agp = N=C(N)NC[C@H](N)C(=O)O
Doc: threshold 100 µg/mL (exclusive). Items with HC50 beneath it return YES; others return NO.

Would you please look over these solved cases?
N=C(N)NCCC[C@@H]1NC(=O)[C@H](CCCNC(=N)N)NC(=O)[C@H](CCCNC(=N)N)NC(=O)[C@H](Cc2c[nH]c3ccccc23)NC(=O)[C@H](C(c2ccccc2)c2ccccc2)NC(=O)[C@H](Cc2c[nH]c3ccccc23)NC(=O)[C@H](CCCNC(=N)N)NC1=O [5a, c[Arg-Arg-Arg-Arg-Trp-Dip-Trp]] (cyclo([Dip]WRRRRW))    NO
N=C(N)NCCCC[C@@H]1NC(=O)[C@H](CCCNC(=N)N)NC(=O)[C@H](CCCCNC(=N)N)NC(=O)[C@H](C(c2ccccc2)c2ccccc2)NC(=O)[C@H](Cc2c[nH]c3ccccc23)NC(=O)[C@H](C(c2ccccc2)c2ccccc2)NC(=O)[C@H](CCCNC(=N)N)NC1=O [7c, c[hArg-Arg-hArg-Arg-Dip-Trp-Dip]] (cyclo([Dip]W[Dip][hArg]R[hArg]R))    NO
N=C(N)NCCC[C@@H]1NC(=O)[C@H](CCCNC(=N)N)NC(=O)[C@H](CCCNC(=N)N)NC(=O)[C@H](C(c2ccccc2)c2ccccc2)NC(=O)[C@H](Cc2c[nH]c3ccccc23)NC(=O)[C@H](C(c2ccccc2)c2ccccc2)NC(=O)[C@H](CCCNC(=N)N)NC1=O [3b, c[Arg-Arg-Arg-Arg-Dip-Trp-Dip]] (cyclo(RRRR[Dip]W[Dip]))    NO
N=C(N)NC[C@@H]1NC(=O)[C@H](CNC(=N)N)NC(=O)[C@H](CNC(=N)N)NC(=O)[C@H](C(c2ccccc2)c2ccccc2)NC(=O)[C@H](Cc2c[nH]c3ccccc23)NC(=O)[C@H](C(c2ccccc2)c2ccccc2)NC(=O)[C@H](CNC(=N)N)NC1=O [7a, c[Agp-Agp-Agp-Agp-Dip-Trp-Dip]] (cyclo([Agp][Agp][Agp][Agp][Dip]W[Dip]))    NO

Query string: Would you kindly verify if HC50 of N=C(N)NCCC[C@@H]1NC(=O)[C@H](CCCNC(=N)N)NC(=O)[C@H](CCCNC(=N)N)NC(=O)[C@H](C(c2ccccc2)c2ccccc2)NC(=O)[C@H](C(c2ccccc2)c2ccccc2)NC(=O)[C@H](Cc2c[nH]c3ccccc23)NC1=O [1a, c[Arg-Arg-Arg-Trp-Dip-Dip]] (cyclo([Dip][Dip]RRRW)) is strictly less than 100 µg/mL?
Result string: YES

Query string: Would you kindly verify if HC50 of CC(C)C[C@@H]1NC(=O)[C@H](C(c2ccccc2)c2ccccc2)NC(=O)[C@H](CCCNC(=N)N)NC(=O)[C@H](CCCNC(=N)N)NC(=O)[C@H](CCCNC(=N)N)NC(=O)[C@H](CCCNC(=N)N)NC(=O)[C@H](C(c2ccccc2)c2ccccc2)NC1=O [6a, c[Arg-Arg-Arg-Arg-Dip-Leu-Dip]] (cyclo([Dip]L[Dip]RRRR)) is strictly less than 100 µg/mL?
Result string: NO

Value source: paper PMC12207910
